target: CISD1 Gene Product (mitoNEET) (Homo sapiens); assay: Stability of Fe-S cluster binding of purified NEET protein (absorbance 458 nm); assay type: biochemical; conditions: mitoNEET 20 μM, compound 60 μM, pH 6, 37° C., run time 180 minutes; vehicle control 80
Sequence (Q9NZ45 33-108 limits assumed): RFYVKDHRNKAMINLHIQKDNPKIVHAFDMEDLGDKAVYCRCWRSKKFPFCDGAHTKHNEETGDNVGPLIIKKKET
Readout name: Time (in minutes) to achieve 50% loss of bound cluster (Absorbance 458 nm)

// worked examples, Time (in minutes) to achieve 50% loss of bound cluster (Absorbance 458 nm) included
| Cpd smiles | Subject of test | Data value |
| --- | --- | --- |
| CC1(C)Cc2c(sc(NC(=O)c3ccc(N4CCOCC4)cc3)c2C(=O)O)C(C)(C)C1 | CISD1 Gene Product (mitoNEET) (Homo sapiens) | 98 (80) minutes |
| CC1(C)CCc2sc(NC(=O)c3ccccc3)c(C(=O)O)c21 | CISD1 Gene Product (mitoNEET) (Homo sapiens) | 85 (80) minutes |
| COC1CN(c2ccc(C(=O)Nc3sc4c(c3C(=O)O)CCC(C)(C)C4)cc2)C1 | CISD1 Gene Product (mitoNEET) (Homo sapiens) | 75 (80) minutes |

# input for lookup
Would you mind telling me what Time (in minutes) to achieve 50% loss of bound cluster (Absorbance 458 nm) value was observed for COC1CN(c2ccc(C(=O)Nc3sc4c(c3C(=O)O)CC(C)(C)CC4(C)C)cc2)C1 ? 100 (80) minutes

* * *

system: H1N1 (influenza A/New Caledonia/20/99); assay: microbe, parasite or virus in culture; assay type: cell-based; settings: H1N1, A549, 48 h
Readout name: pIC50
Units for pIC50: none; it is -log10 of a concentration expressed in mol/L.

// worked examples, pIC50 included
| Molecule | pIC50 |
| --- | --- |
| COCCOc1ccc(C(=O)Nc2sc3c(c2C(=O)O)CC(C)(C)CC3(C)C)cc1 | 7.63 |
| CC1(C)Cc2c(sc(NC(=O)c3ccc(N4CCOCC4)nc3)c2C(=O)O)C(C)(C)C1 | 6.82 |
| CC1(C)Cc2c(sc(NC(=O)c3ccc(C4CCOCC4)cc3)c2C(=O)O)C(C)(C)C1 | 7.41 |

Would you mind telling me what pIC50 value was observed for CC1(C)CCc2c(sc(NC(=O)c3ccccc3)c2C(=O)O)C1 ? 7.22

Would you mind telling me what pIC50 value was observed for COCCN(C)c1ccc(C(=O)Nc2sc3c(c2C(=O)O)CC(C)(C)CC3(C)C)cc1 ? 8.41

Would you mind telling me what pIC50 value was observed for CC1(C)CCc2sc(NC(=O)c3ccc(N4CCOCC4)cc3)c(C(=O)O)c21 ? 6.98

Would you mind telling me what pIC50 value was observed for CC1(C)Cc2c(sc(NC(=O)c3ccc(N4CCC(O)CC4)cc3)c2C(=O)O)C(C)(C)C1 ? 6.95

Would you mind telling me what pIC50 value was observed for CC1(C)CCc2c(sc(NC(=O)c3cccc(N4CCOCC4)c3)c2C(=O)O)C1 ? 6.89

Would you mind telling me what pIC50 value was observed for Cn1cc(C(=O)Nc2sc3c(c2C(=O)O)CCC(C)(C)C3)cn1 ? 6.05

* * *

biological target: CISD1 Gene Product (mitoNEET) (Homo sapiens); experiment: Stability of Fe-S cluster binding of purified NEET protein (absorbance 458 nm); type: biochemical; conditions: mitoNEET 20 μM, compound 60 μM, pH 6, 37° C., run time 180 minutes; vehicle control 80
Overview of recorded Time (in minutes) to achieve 50% loss of bound cluster (Absorbance 458 nm) for various compounds

// worked examples, Time (in minutes) to achieve 50% loss of bound cluster (Absorbance 458 nm) included
| Compound | Data value |
| --- | --- |
| CC1(C)Cc2c(sc(NC(=O)c3ccc(NCC4CCOCC4)cc3)c2C(=O)O)C(C)(C)C1 | 90 (80) minutes |
| CC1(C)Cc2c(sc(NC(=O)c3ccc(NC4CCOCC4)cc3)c2C(=O)O)C(C)(C)C1 | 85 (80) minutes |
| COCCNc1ccc(C(=O)Nc2sc3c(c2C(=O)O)CC(C)(C)CC3(C)C)cc1 | 100 (80) minutes |
| CC1CC(C)(C)Cc2sc(NC(=O)c3ccc(NC4CCOCC4)cc3)c(C(=O)O)c21 (stereo not drawn) | 75 (80) minutes |
| CN(c1ccc(C(=O)Nc2sc3c(c2C(=O)O)CC(C)(C)CC3(C)C)cc1)C1CCOCC1 | 100 (80) minutes |

Would you mind telling me what Time (in minutes) to achieve 50% loss of bound cluster (Absorbance 458 nm) value was observed for COc1ccc(C(=O)Nc2sc3c(c2C(=O)O)CCC(C)(C)C3)cc1 ? 65 (80) minutes

* * *

Molecular target: CISD3 Gene Product (Miner2) (Homo sapiens)
Sequence (P0C7P0 15-127): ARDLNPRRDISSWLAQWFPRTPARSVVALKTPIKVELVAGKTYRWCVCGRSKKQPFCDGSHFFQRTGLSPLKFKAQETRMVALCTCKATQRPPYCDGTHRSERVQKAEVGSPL
Assay: Stability of Fe-S cluster binding of purified NEET protein (absorbance 458 nm)
Type: biochemical
Details: Miner2 20 μM, compound 60 μM, pH 6, 37° C., run time 180 minutes; vehicle control 60
Overview of recorded Time (in minutes) to achieve 50% loss of bound cluster (Absorbance 458 nm) for various compounds

// worked examples, Time (in minutes) to achieve 50% loss of bound cluster (Absorbance 458 nm) included
| Compound | Data value |
| --- | --- |
| COC1CN(c2ccc(C(=O)Nc3sc4c(c3C(=O)O)CCC(C)(C)C4)cc2)C1 | 60 (60) minutes |
| CC1CC(C)(C)Cc2sc(NC(=O)c3ccc(NC4CCOCC4)cc3)c(C(=O)O)c21 (stereo not drawn) | 45 (60) minutes |
| CC1(C)CCc2sc(NC(=O)c3ccccc3)c(C(=O)O)c21 | 75 (60) minutes |
| CN(c1ccc(C(=O)Nc2sc3c(c2C(=O)O)CC(C)(C)CC3(C)C)cc1)C1CCOCC1 | 80 min |
| CC1(C)Cc2c(sc(NC(=O)c3ccc(N4CCOCC4)cc3)c2C(=O)O)C(C)(C)C1 | 80 (60) minutes |

Would you mind telling me what Time (in minutes) to achieve 50% loss of bound cluster (Absorbance 458 nm) value was observed for CC1(C)Cc2c(sc(NC(=O)c3ccc(NC4CCOCC4)cc3)c2C(=O)O)C(C)(C)C1 ? 50 (60) minutes

Would you mind telling me what Time (in minutes) to achieve 50% loss of bound cluster (Absorbance 458 nm) value was observed for COCCNc1ccc(C(=O)Nc2sc3c(c2C(=O)O)CC(C)(C)CC3(C)C)cc1 ? 90 (60) minutes

Would you mind telling me what Time (in minutes) to achieve 50% loss of bound cluster (Absorbance 458 nm) value was observed for COc1ccc(C(=O)Nc2sc3c(c2C(=O)O)CCC(C)(C)C3)cc1 ? 35 (60) minutes

Would you mind telling me what Time (in minutes) to achieve 50% loss of bound cluster (Absorbance 458 nm) value was observed for COC1CN(c2ccc(C(=O)Nc3sc4c(c3C(=O)O)CC(C)(C)CC4(C)C)cc2)C1 ? 125 (60) minutes

* * *

Target: CISD2 Gene Product (NAF-1) (Homo sapiens, UniProt Q8N5K1)
Sequence (Q8N5K1 57-135 limits assumed): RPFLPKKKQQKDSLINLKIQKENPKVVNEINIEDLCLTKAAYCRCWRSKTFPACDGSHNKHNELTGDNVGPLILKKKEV
Test: Stability of Fe-S cluster binding of purified NEET protein (absorbance 458 nm)
Assay type: biochemical
Conditions: NAF-1 20 μM, compound 60 μM, pH 6, at 500 minutes; vehicle control 3%
Readout name: Residual cluster bound at end of experiment (Percentage Absorbance 458 nm at time zero)

// worked examples, Residual cluster bound at end of experiment (Percentage Absorbance 458 nm at time zero) included
| Compound | Data value |
| --- | --- |
| CC1(C)CCc2sc(NC(=O)c3ccccc3)c(C(=O)O)c21 [Compound #37] | 3% (3%) |
| COc1ccc(C(=O)Nc2sc3c(c2C(=O)O)CCC(C)(C)C3)cc1OC [Compound #18] | 42% (3%) |
| CC1(C)Cc2c(sc(NC(=O)c3ccc(N4CCOCC4)cc3)c2C(=O)O)C(C)(C)C1 [Compound #36] | 30% (3%) |

Would you mind telling me what Residual cluster bound at end of experiment (Percentage Absorbance 458 nm at time zero) value was observed for COCCNc1ccc(C(=O)Nc2sc3c(c2C(=O)O)CC(C)(C)CC3(C)C)cc1 [Compound #60] ? 12% (3%)

Would you mind telling me what Residual cluster bound at end of experiment (Percentage Absorbance 458 nm at time zero) value was observed for COC1CN(c2ccc(C(=O)Nc3sc4c(c3C(=O)O)CC(C)(C)CC4(C)C)cc2)C1 [Compound #58] ? 39% (3%)

Would you mind telling me what Residual cluster bound at end of experiment (Percentage Absorbance 458 nm at time zero) value was observed for COC1CN(c2ccc(C(=O)Nc3sc4c(c3C(=O)O)CCC(C)(C)C4)cc2)C1 [Compound #147] ? 5% (3%)

Would you mind telling me what Residual cluster bound at end of experiment (Percentage Absorbance 458 nm at time zero) value was observed for CN(c1ccc(C(=O)Nc2sc3c(c2C(=O)O)CC(C)(C)CC3(C)C)cc1)C1CCOCC1 [Compound #135] ? 16% (3%)

Would you mind telling me what Residual cluster bound at end of experiment (Percentage Absorbance 458 nm at time zero) value was observed for CC1(C)Cc2c(sc(NC(=O)c3ccc(NC4CCOCC4)cc3)c2C(=O)O)C(C)(C)C1 [Compound #35] ? 13% (3%)

Taken from patent US11492347B2.
